# ASSAY OVERVIEW: gradient 5% acetonitrile 3 min, to 50% in 2 min, to 85% in 15 min, held 3 min, 100 µL/min
# MEASUREMENT PARAMETERS: column: Zorbax Extend-C18 2.1 x 50 mm; eluents: water / acetonitrile, 0.1% formic acid
MEASURE NAME: RP-LC retention time (s)

These recorded examples may help you get a feel for the data.
| COMPOUND | RP-LC retention time [s] |
| --- | --- |
| CCC1CCCCN1S(=O)(=O)c1cc(-c2nc(C)c(C)s2)sc1C (centres undefined) | 1320 |
| O=C(NC1CCCC1)N1c2ccccc2CC1c1noc(C2CCOCC2)n1 (centres undefined) | 854 |
| CC(C)NC(=O)C1CCN(c2nc3ccc(-c4cccnc4)nc3s2)CC1 | 605 |
| CCOc1cc(CNCCc2c[nH]c3ccccc23)ccc1Oc1nnnn1-c1ccccc1 | 780 |
| O=C(Nc1ccc(Cl)cc1)N1CCC(N2CCN(Cc3ccc(F)cc3)C(=O)C2=O)CC1 | 799 |

(a) CSc1ccc(Cl)c(C(=O)NCCc2cn(C)c3ncccc23)c1
(b) Cc1cccc(-c2nnc(-c3ccc(Cl)c(S(=O)(=O)N4CCCCC4)c3)o2)c1
Request: Kindly compare a with b and tell me which has the lower RP-LC retention time figure. # reply format: chosen label
Response: a
(a: 724 s, b: 1250 s)

----------
# ASSAY OVERVIEW: gradient 5% acetonitrile 3 min, to 50% in 2 min, to 85% in 15 min, held 3 min, 100 µL/min
# MEASUREMENT PARAMETERS: column: Zorbax Extend-C18 2.1 x 50 mm; eluents: water / acetonitrile, 0.1% formic acid
MEASURE NAME: RP-LC retention time (s)

These recorded examples may help you get a feel for the data.
| COMPOUND | RP-LC retention time, s |
| --- | --- |
| Cc1ccc2c(C(=O)NCc3ccc(C)o3)cc(NC(=O)C3CCC3)cc2n1 | 618 |
| CC1CN(C(=O)Cn2cc(SCC(=O)N3CCCCC3)c3ccccc32)CC(C)O1 (stereo not given) | 783 |
| NC(=O)C(=O)c1cn(Cc2ccc(F)cc2)c2ccccc12 | 811 |
| Cc1cc(NC(=O)Cn2ccn3nc(-c4ccccc4)c(CO)c3c2=O)no1 | 714 |
| CCOc1ccc(CNC(=O)c2cn3ccccc3n2)cc1 | 687 |

(I) COC(=O)CC1CN=C(Nc2nc(C)c3ccccc3n2)NC1=O (stereo not given)
(II) CC(C)CC(=O)NCC(c1ccccc1Cl)c1c[nH]c2ccccc12 (stereo not given)
Request: Kindly compare I with II and tell me which has the lower RP-LC retention time figure. # reply format: chosen label
Response: I

----------
# ASSAY OVERVIEW: gradient 5% acetonitrile 3 min, to 50% in 2 min, to 85% in 15 min, held 3 min, 100 µL/min
# MEASUREMENT PARAMETERS: column: Zorbax Extend-C18 2.1 x 50 mm; eluents: water / acetonitrile, 0.1% formic acid
MEASURE NAME: RP-LC retention time (s)

| MOLECULE | RP-LC retention time (s) |
| --- | --- |
| O=C(NC1(c2nc(C3CC3)no2)CCCCC1)c1cc(-c2ccc(F)cc2)n[nH]1 | 905 |
| COc1ccc(C(=O)N2CCC(c3noc(-c4cnccn4)n3)C2)cn1 (stereo not given) | 790 |
| Cc1cccc(-c2nc(Cn3nnc(-c4nc(-c5ccncc5)no4)c3C)c(C)o2)c1 | 1070 |
| COCCCNC(=O)N1CCCC(C)(C(=O)NCc2ccccc2C)C1 (stereo not given) | 720 |
| Cc1cc(C)cc(NC(=O)Cn2ncc3c(c2=O)N(C2CC2)C(=O)CS3)c1 | 797 |

FYI, the data here is from the METLIN SMRT retention time set (Domingo-Almenara et al. 2019).
